Molecular target: ROCK1 (Homo sapiens, UniProt Q13464)
Construct: purchased Upstate/Chemicon 14-601
Sequence (Q13464 17-535 limits assumed): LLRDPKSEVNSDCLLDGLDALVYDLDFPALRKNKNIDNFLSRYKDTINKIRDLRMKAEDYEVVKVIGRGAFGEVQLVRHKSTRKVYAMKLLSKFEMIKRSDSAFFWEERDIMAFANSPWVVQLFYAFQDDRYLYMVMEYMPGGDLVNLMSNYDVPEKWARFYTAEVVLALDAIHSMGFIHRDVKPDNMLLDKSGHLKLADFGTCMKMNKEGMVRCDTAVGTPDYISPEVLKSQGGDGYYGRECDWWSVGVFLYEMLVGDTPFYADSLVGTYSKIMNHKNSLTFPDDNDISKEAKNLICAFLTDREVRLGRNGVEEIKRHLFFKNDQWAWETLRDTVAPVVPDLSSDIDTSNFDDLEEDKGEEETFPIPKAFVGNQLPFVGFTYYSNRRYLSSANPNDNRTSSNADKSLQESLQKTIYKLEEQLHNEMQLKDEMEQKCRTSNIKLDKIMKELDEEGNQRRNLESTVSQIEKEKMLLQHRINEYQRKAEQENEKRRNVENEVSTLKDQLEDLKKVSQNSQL
Assay: Rho kinase inhibition assay (IMAP fluorescence polarization), ROCK1
Format: biochemical
Settings: Avg, 10 μM ATP
Known pKi of a selection of molecules
Please treat pKi as minus the base-10 logarithm of the molar concentration.

Past entries and their recorded results:
>  <Molecule>
OCCOc1cccc(CN2CCC[C@@H](Nc3ccc4[nH]ncc4c3)C2)c1 [Compound 1.092]

>  <pKi>
6.72

$$$$
>  <Molecule>
CSc1cccc(CN2CCC[C@H](Nc3ccc4[nH]ncc4c3)C2)c1 [Compound 1.158]

>  <pKi>
7.19

$$$$
>  <Molecule>
c1ccc2c(CN3CCC[C@@H](Nc4ccc5[nH]ncc5c4)C3)c[nH]c2c1 [Compound 1.252]

>  <pKi>
7.52

$$$$
>  <Molecule>
c1c[nH]c(CN2CCC[C@H](Nc3ccc4[nH]ncc4c3)C2)n1 [Compound 1.256]

>  <pKi>
6.15

$$$$
>  <Molecule>
O=C(O)COc1cccc(CN2CCC[C@@H](Nc3ccc4[nH]ncc4c3)C2)c1 [Compound 1.125]

>  <pKi>
6.25

$$$$
>  <Molecule>
OCCCOc1cccc(CN2CCC[C@H](Nc3ccc4[nH]ncc4c3)C2)c1 [Compound 1.230]

>  <pKi>
6.46

$$$$
>  <Molecule>
CS(=O)(=O)c1cccc(CN2CCC[C@H](Nc3ccc4[nH]ncc4c3)C2)c1 [Compound 1.182]

>  <pKi>
6.39

$$$$

Lab note: next molecule to report on.
Returns the measured pKi for the input molecule. Input: Cc1cccc(CN2CCC[C@@H](Nc3ccc4[nH]ncc4c3)C2)c1C [Compound 1.172]
6.99

---

Biological target: ROCK2 (Homo sapiens, UniProt O75116)
Construct: purchased Upstate/Chemicon 14-451
Sequence (O75116 11-552 limits assumed): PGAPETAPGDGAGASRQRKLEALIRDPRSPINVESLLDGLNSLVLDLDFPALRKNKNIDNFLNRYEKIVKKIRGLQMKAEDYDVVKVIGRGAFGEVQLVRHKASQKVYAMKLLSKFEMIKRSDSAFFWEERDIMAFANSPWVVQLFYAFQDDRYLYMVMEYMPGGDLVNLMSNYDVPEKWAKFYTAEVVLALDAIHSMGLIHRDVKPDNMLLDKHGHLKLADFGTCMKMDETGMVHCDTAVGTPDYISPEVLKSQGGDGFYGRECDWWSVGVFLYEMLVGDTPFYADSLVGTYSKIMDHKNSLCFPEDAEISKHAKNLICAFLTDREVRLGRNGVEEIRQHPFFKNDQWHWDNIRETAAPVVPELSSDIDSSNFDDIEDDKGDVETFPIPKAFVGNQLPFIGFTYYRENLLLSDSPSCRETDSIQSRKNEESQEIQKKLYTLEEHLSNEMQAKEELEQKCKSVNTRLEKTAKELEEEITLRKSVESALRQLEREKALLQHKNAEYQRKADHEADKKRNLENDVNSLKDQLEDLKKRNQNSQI
Test: Rho kinase inhibition assay (IMAP fluorescence polarization), ROCK2
Format: biochemical
Details: 10 μM ATP; read-out: ROCK2 Ki, Avg
Known Ki of a selection of molecules
Write it as a number; the unit µM goes unstated.

>  <Chem Smiles>
c1cc(N[C@@H]2CCN(Cc3ccsc3)C2)c2ccncc2c1

>  <Measurement>
0.0136

$$$$

Returns the measured Ki for the input molecule. Input: Clc1ccc(CN2CC[C@@H](Nc3ccc4[nH]ncc4c3)C2)cc1Cl
0.039

Returns the measured Ki for the input molecule. Input: NS(=O)(=O)c1cccc(CN2CCC[C@@H](Nc3ccc4[nH]ncc4c3)C2)c1
0.0086

---

Target: ROCK2 (Homo sapiens)
Construct: purchased Upstate/Chemicon 14-451
Assay: Rho kinase inhibition assay (IMAP fluorescence polarization), ROCK2
Assay type: biochemical
Conditions: 10 μM ATP; read-out: ROCK2 Ki, Avg
Measured Quantity: Ki (nM)
Write it as a number; the unit nM goes unstated.

>  <Compound>
Cc1ccc(CN2CCC[C@H](Nc3ccc4[nH]ncc4c3)C2)cc1OCC(=O)O [Compound 1.240]

>  <Units Of Measure>
nM

>  <Measurement>
60.1

$$$$
>  <Compound>
CS(=O)(=O)Nc1cc(CN2CCC[C@@H](Nc3ccc4[nH]ncc4c3)C2)ccc1Cl [Compound 1.212]

>  <Units Of Measure>
nM

>  <Measurement>
3.9

$$$$
>  <Compound>
NS(=O)(=O)c1cccc(CN2CCC[C@H](Nc3ccc4[nH]ncc4c3)C2)c1 [Compound 1.215]

>  <Units Of Measure>
nM

>  <Measurement>
3.5

$$$$
>  <Compound>
c1cc2cc(CN3CCC[C@@H](Nc4ccc5[nH]ncc5c4)C3)ccc2o1 [Compound 1.131]

>  <Units Of Measure>
nM

>  <Measurement>
3.8

$$$$

Hello, I am looking for reported Ki with ROCK2 (Homo sapiens) for c1cc(N[C@@H]2CCN(Cc3cncnc3)C2)c2ccncc2c1 [Compound 2.084] . Could you help?
350

Hello, I am looking for reported Ki with ROCK2 (Homo sapiens) for COc1ccc(CN2CC[C@@H](Nc3cccc4cnccc34)C2)cc1OCCO [Compound 2.067] . Could you help?
4.2

---

Target: Mnk2 (Homo sapiens)
Construct: purchased Upstate, Millipore Bioscience Division (KinaseProfiler service)
Sequence (Q9HBH9 whole entry): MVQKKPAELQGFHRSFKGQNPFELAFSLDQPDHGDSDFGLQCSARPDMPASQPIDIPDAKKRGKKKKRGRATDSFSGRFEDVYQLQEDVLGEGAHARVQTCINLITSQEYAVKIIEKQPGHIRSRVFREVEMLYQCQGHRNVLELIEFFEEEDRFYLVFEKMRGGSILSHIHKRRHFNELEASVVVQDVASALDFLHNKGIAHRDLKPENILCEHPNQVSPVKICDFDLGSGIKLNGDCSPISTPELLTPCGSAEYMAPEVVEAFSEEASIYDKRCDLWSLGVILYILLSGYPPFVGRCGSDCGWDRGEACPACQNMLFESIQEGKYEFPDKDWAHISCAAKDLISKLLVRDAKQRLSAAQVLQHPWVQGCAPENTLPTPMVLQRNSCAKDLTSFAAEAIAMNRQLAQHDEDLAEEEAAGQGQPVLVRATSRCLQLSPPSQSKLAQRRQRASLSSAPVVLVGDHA
Assay: Kinase panel screen (KinaseProfiler), Mnk2
Format: biochemical
Conditions: 10 μM test compound, 10 μM ATP; read-out: Mnk2 Percent inhibition, 10 μM
Known activity at 10 µM of a selection of compounds
Write it as a number; the unit % goes unstated.

>  <Chem Smiles>
OCCn1ccc2cc(CN3CC[C@@H](Nc4cccc5cnccc45)C3)ccc21

>  <Units Of Measure>
%

>  <activity at 10 µM>
54

$$$$

Returns the measured activity at 10 µM for the input compound. Input: NC(=O)Cn1ccc2cc(CN3CCC[C@@H](Nc4ccc5[nH]ncc5c4)C3)ccc21
65

Returns the measured activity at 10 µM for the input compound. Input: NC(=O)Cn1ccc2cc(CN3CC[C@@H](Nc4cccc5cnccc45)C3)ccc21
12

Returns the measured activity at 10 µM for the input compound. Input: Cc1ccc(CN2CCC[C@@H](Nc3ccc4[nH]ncc4c3)C2)cc1OCCO
106

---

Target: ROCK1 (Homo sapiens)
Construct: purchased Upstate/Chemicon 14-601
Assay: Rho kinase inhibition assay (IMAP fluorescence polarization), ROCK1;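 note: kinase reaction run 60 min at room temperature, then phosphorylated substrate captured on IMAP beads for 30 min, with fluorescence polarization read in mP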
Type: biochemical
Details: average Ki
Measured Quantity: log10 of Ki (log10 of the value in µM)
Each number you see is log10 of Ki, and the unit inside the log is µM.

Past entries and their recorded results:
>  <Molecule>
CS(=O)(=O)Nc1cccc(CN2CCCC(Nc3ccc4[nH]ncc4c3)C2)c1 (stereo in doubt) [Compound 1.091]

>  <log10 of Ki>
-1.15

$$$$
>  <Molecule>
CN(C)S(=O)(=O)Nc1cccc(CN2CCC[C@H](Nc3ccc4[nH]ncc4c3)C2)c1 [Compound 1.261]

>  <log10 of Ki>
-0.51

$$$$
>  <Molecule>
c1ccc2c(CN3CCC[C@@H](Nc4ccc5[nH]ncc5c4)C3)c[nH]c2c1 [Compound 1.252]

>  <log10 of Ki>
-1.52

$$$$
>  <Molecule>
c1cc(N[C@@H]2CCN(Cc3ccc4[nH]ccc4c3)C2)c2ccncc2c1 [Compound 2.065]

>  <log10 of Ki>
-2.39

$$$$
>  <Molecule>
c1cc(N[C@@H]2CCN(Cc3ccc4occc4c3)C2)c2ccncc2c1 [Compound 2.055]

>  <log10 of Ki>
-1.80

$$$$
>  <Molecule>
CS(=O)(=O)Nc1cc(CN2CCC[C@@H](Nc3ccc4[nH]ncc4c3)C2)ccc1Cl [Compound 1.212]

>  <log10 of Ki>
-1.35

$$$$
>  <Molecule>
Clc1ccc(CN2CCC[C@@H](Nc3ccc4[nH]ncc4c3)C2)cc1 [Compound 1.132]

>  <log10 of Ki>
-1.65

$$$$

Lab note: next molecule to report on.
Returns the measured log10 of Ki for the input molecule. Input: c1cc2ccc(CN3CCC[C@H](Nc4ccc5[nH]ncc5c4)C3)cc2[nH]1 [Compound 1.148]
-1.61

---

Known Ki of a selection of molecules
Target: Akt3 human enzyme (Homo sapiens, UniProt Q9Y243)
Construct: purchased Upstate Chemicon 14-502
Sequence (Q9Y243 whole entry): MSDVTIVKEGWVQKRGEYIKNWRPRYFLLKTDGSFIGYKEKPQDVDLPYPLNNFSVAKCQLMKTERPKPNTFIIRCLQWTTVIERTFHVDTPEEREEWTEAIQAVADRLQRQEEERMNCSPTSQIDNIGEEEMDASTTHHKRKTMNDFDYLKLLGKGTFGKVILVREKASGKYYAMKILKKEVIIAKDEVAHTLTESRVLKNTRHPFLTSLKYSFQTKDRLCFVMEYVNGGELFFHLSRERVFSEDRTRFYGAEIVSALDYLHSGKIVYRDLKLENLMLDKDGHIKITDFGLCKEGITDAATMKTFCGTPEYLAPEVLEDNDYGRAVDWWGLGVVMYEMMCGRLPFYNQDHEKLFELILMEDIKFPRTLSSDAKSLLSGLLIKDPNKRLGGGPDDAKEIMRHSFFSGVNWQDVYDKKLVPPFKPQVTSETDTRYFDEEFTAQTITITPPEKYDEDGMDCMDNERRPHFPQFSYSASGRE
Test: Akt3 inhibition assay (IMAP FP);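 note: kinase reaction run 60 min at room temperature after 30 µM ATP start, phosphorylated substrate captured on IMAP beads and read as fluorescence polarization (mP)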
Type: biochemical
Details: 30 μM ATP; Ki=IC50/(1+([ATP Challenge]/EC50 ATP)); read-out: Akt3 Ki, Avg
Write it as a number; the unit µM goes unstated.

Past entries and their recorded results:
>  <Chem Smiles>
Cc1ccc(CN2CCC[C@H](Nc3ccc4[nH]ncc4c3)C2)cc1OCCO

>  <Measurement>
1.98

$$$$
>  <Chem Smiles>
c1cc2cc(CN3CCC[C@@H](Nc4ccc5[nH]ncc5c4)C3)ccc2o1

>  <Measurement>
0.283

$$$$
>  <Chem Smiles>
c1cc2c(cc1CN1CCC[C@@H](Nc3ccc4[nH]ncc4c3)C1)CCO2

>  <Measurement>
1.1

$$$$

Lab note: next molecule to report on.
Hello, I am looking for reported Ki with Akt3 human enzyme (Homo sapiens, UniProt Q9Y243) for CCS(=O)(=O)Nc1cccc(CN2CC[C@@H](Nc3cccc4cnccc34)C2)c1 . Could you help?
3.44

---

Assay: Rat oral pharmacokinetics (plasma)
Assay type: in vivo
Conditions: male, CD Sprague Dawley, 20-30 μmol/kg, mean n = 3, read-out: t½ (converted)
Known half-life of a selection of compounds
Write it as a number; the unit h goes unstated.

>  <Chem Smiles>
OCCOc1cccc(CN2CCC[C@@H](Nc3ccc4[nH]ncc4c3)C2)c1

>  <half-life / h>
1.74

$$$$
>  <Chem Smiles>
CCS(=O)(=O)Nc1cccc(CN2CCC[C@H](Nc3ccc4[nH]ncc4c3)C2)c1

>  <half-life / h>
1.39

$$$$
>  <Chem Smiles>
c1cc2cc(CN3CCC[C@@H](Nc4ccc5[nH]ncc5c4)C3)ccc2o1

>  <half-life / h>
1.55

$$$$

Lab note: next compound to report on.
Returns the measured half-life for the input compound. Input: CCS(=O)(=O)Nc1cccc(CN2CCC[C@@H](Nc3ccc4[nH]ncc4c3)C2)c1
0.9
